B1: glmS ribozyme (parent)
chain: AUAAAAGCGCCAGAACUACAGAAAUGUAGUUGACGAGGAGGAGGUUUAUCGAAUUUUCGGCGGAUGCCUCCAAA

variants of: B1; test: self-cleavage kobs at 2500 uM GlcN6P; higher = faster cleavage; RNA array; settings: with glucosamine-6-phosphate
Fewer inactive variants are shown than the library holds.
# self-cleavage kobs at 2500 uM GlcN6P listing for each entry below

[
  {
    "residues": "AUAAAAGCGCCAGAACUACAGAAAUGUAGUUGACGAGGAGUAGGUUUAUUUAAUUUUCGGCGGAUGCCUCCAAA",
    "self-cleavage kobs at 2500 uM GlcN6P": "< 1e-05 s⁻¹"
  },
  {
    "residues": "AUAAAAGCGCCAGAACUACAGAAAUGUAGUUGACGAGGAGGAGUUGUAUCGAAUUUUCGGCGGAUGCCUUGAAA",
    "self-cleavage kobs at 2500 uM GlcN6P": "< 1e-05 s⁻¹"
  },
  {
    "residues": "AUAAAAGCGCCAGAACUACAGAAAUGUAGUUGUCGAGGAGUAGGUUUAUCGAAUUUUCGGCUGAUGCCUCCAAA",
    "self-cleavage kobs at 2500 uM GlcN6P": "< 1e-05 s⁻¹"
  },
  {
    "residues": "AUAAAAGUGCCAGAACUACAGAAAUGUAGUUGACGAGAAGGAGGUUUAUCGAAUUUUCGGCGGAUGCCUACAAA",
    "self-cleavage kobs at 2500 uM GlcN6P": "< 1e-05 s⁻¹"
  }
]

// Input: AUAAAAGCGCCAUAACUACAGAAAUGUAGUGGACGAGGAGUAUGUUUAUCGAAUUUUCGGCGGAUGCCUCCAAA . Output its self-cleavage kobs at 2500 uM GlcN6P only. < 1e-05 s⁻¹
